TGT: Glycogen synthase kinase-3 beta (Homo sapiens)
Sequence (P49841 whole entry): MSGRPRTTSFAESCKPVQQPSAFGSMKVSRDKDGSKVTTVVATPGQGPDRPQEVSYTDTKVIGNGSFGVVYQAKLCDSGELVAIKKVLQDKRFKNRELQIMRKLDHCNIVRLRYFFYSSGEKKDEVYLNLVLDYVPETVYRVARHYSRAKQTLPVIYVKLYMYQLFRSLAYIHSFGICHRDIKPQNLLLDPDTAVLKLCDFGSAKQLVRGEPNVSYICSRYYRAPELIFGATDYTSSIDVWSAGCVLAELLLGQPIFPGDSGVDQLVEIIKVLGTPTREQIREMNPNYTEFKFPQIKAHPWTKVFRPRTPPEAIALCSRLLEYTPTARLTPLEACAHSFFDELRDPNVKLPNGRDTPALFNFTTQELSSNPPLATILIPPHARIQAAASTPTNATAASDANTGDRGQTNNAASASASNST
MEASURE NAME: IC50 (µM)
State the answer as a number, implicitly in µM.

Recorded IC50 of "COc1ccc(-c2cccc3nc(NC(=O)C4CC4)nn23)cc1" , please.
7.11

* * *

METHOD SUMMARY: Half life in dog at 1 mg/kg, iv
Format: ADME, organism-based, Canis lupus familiaris
Design: dose 1 mg/kg, route intravenous
CONDITION DESCRIPTION: in vivo
MEASURE NAME: half-life (h)
Return type: number; implicit unit h.

Reported half-life for O=C(Nc1nc2cccc(-c3ccc(CN4CCS(=O)(=O)CC4)cc3)n2n1)C1CC1 [FILGOTINIB] : what is it?
7.5

* * *

TGT: Receptor-interacting serine/threonine-protein kinase 2 (Homo sapiens, UniProt O43353)
Sequence (O43353 whole entry): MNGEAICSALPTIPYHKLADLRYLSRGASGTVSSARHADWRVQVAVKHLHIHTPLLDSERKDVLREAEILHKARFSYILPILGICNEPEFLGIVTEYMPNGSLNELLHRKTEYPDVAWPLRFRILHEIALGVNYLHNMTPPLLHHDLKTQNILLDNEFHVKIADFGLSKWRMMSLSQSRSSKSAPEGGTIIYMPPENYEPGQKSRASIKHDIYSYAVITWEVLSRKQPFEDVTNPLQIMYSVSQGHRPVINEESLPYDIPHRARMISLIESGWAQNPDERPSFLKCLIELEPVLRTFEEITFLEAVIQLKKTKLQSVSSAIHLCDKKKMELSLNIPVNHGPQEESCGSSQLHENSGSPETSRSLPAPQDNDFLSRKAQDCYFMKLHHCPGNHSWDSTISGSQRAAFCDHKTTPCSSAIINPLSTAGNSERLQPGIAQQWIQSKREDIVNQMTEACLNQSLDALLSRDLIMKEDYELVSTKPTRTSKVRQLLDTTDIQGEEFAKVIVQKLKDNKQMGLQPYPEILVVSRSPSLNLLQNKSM
MEASURE NAME: pIC50
pIC50 here is simply -log10 of the concentration when that concentration is written in mol/L.

Reported pIC50 for "COc1ccc(-c2cccc3nc(NC(=O)C4CC4)nn23)cc1" : what is it?
4.29

* * *

METHOD SUMMARY: Half life in dog at 5 mg/kg, po
Assay type: ADME, organism-based, Canis lupus familiaris
Parameters: dose 5 mg/kg, route oral
CONDITION DESCRIPTION: in vivo
MEASURE NAME: half-life (h)
Answer format: numeric, h implied, no suffix.

State the recorded half-life for this entry: "O=C(Nc1nc2cccc(-c3ccc(CN4CCS(=O)(=O)CC4)cc3)n2n1)C1CC1"
5.2

* * *

Species on record: Homo sapiens
METHOD SUMMARY: Selectivity index, ratio of IC50 for human recombinant JAK2 to IC50 for human recombinant JAK1
Kindly state Ratio IC50 for each of the entries shown.
The response must contain the number and no unit.

Query (compound): "O=C(Nc1nc2cccc(-c3ccc(Cc4ccc(O)c(CO)c4)cc3)n2n1)C1CC1" ; field requested: Ratio IC50
1.7

Then what about the compound "CNC(=O)Nc1nc2cccc(-c3ccc(OC)cc3)n2n1" ?
0.7

Follow-up entry: "COc1ncc(-c2cccc3nc(NC(=O)C4CC4)nn23)cn1"
2.1

Let us now turn to "O=C(Nc1nc2cccc(-c3ccc(CN4CCC(F)(F)CC4)cc3)n2n1)C1CC1"
1.1

Another compound: O=C(Nc1nc2cccc(-c3ccc(CNC4CCS(=O)(=O)C4)cc3)n2n1)C1CC1 (stereo not given)
2.1

* * *

METHOD SUMMARY: Tmax in dog at 5 mg/kg, po
Assay type: ADME, organism-based, Canis lupus familiaris
Design: dose 5 mg/kg, route oral
CONDITION DESCRIPTION: in vivo
MEASURE NAME: Tmax (h)
Write the answer as a number in h, unit excluded.

What measured Tmax goes with "O=C(Nc1nc2cccc(-c3ccc(CN4CCS(=O)(=O)CC4)cc3)n2n1)C1CC1" ?
1.5

* * *

METHOD SUMMARY: Clearance in rat at 1 mg/kg, iv
Type: ADME, organism-based
Design: dose 1 mg/kg, route intravenous
CONDITION DESCRIPTION: in vivo
MEASURE NAME: clearance
Provide a numeric answer, followed by its unit.

Would you mind telling me what clearance value was observed for "O=C(Nc1nc2cccc(-c3ccc(CN4CCOCC4)cc3)n2n1)C1CC1" ?
35.3 mL/min/kg

* * *

So I've got a bunch of molecules here, and I need their IC50 values.
TGT: Tyrosine-protein kinase JAK2 (Homo sapiens, UniProt O60674)
Sequence (O60674 whole entry): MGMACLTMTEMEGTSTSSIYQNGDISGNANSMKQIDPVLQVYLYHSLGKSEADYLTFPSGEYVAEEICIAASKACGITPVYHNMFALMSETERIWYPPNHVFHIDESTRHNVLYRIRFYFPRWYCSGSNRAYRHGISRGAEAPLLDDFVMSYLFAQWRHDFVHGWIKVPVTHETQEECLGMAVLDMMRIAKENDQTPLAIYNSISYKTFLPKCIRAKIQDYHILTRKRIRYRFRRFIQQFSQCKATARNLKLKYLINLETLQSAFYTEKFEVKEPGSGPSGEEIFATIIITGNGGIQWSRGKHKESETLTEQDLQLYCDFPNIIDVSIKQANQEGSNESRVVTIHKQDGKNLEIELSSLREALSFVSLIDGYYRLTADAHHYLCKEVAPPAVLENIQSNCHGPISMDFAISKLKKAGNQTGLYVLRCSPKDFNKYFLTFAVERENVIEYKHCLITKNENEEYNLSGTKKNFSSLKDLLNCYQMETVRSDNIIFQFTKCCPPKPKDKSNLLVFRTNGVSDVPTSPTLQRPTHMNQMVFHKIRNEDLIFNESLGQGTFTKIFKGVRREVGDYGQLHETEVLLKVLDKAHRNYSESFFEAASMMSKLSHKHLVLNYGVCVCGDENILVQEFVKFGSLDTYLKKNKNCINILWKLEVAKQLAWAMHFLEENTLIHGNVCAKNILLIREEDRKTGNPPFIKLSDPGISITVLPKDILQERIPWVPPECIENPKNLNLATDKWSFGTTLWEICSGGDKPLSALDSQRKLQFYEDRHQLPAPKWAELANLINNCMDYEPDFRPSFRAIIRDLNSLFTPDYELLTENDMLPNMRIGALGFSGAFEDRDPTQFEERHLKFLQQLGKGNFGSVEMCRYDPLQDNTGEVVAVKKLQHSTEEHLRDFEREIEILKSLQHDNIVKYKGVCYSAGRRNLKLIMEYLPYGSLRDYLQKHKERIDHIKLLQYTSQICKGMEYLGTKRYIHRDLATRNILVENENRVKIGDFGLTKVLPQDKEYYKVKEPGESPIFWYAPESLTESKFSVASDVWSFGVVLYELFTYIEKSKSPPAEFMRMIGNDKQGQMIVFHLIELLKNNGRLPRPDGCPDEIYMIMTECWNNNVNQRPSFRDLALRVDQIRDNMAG
METHOD SUMMARY: Inhibition of JAK2 in human whole blood assessed as inhibition of GM-CSF-induced pSTAT5

Any idea what its IC50 is? The molecule is "O=C(Nc1nc2cccc(-c3ccc(CNC(=O)C(F)(F)F)cc3)n2n1)C1CC1"
> 30 µM

Quick one: O=C(Nc1nc2cccc(-c3ccc(CNC4CCS(=O)(=O)C4)cc3)n2n1)C1CC1 (stereo not given)
> 30 µM

What about this molecule? "O=C(Nc1nc2cccc(-c3ccc(CN4CCOCC4)cc3)n2n1)C1CC1"
> 30 µM

Likewise for "O=C(Nc1nc2cccc(-c3ccc(CN4CCC(F)(F)CC4)cc3)n2n1)C1CC1" ?
> 10 µM

Similarly, "Nc1nc2cccc(-c3ccc(CN4CCS(=O)(=O)CC4)cc3)n2n1" ?
> 100 µM
